Tested target: SIK1 (human)
Protocol: KINOMEscan competition binding
Assay setup: compound 10.0 µM
Observable: kinase still bound, per cent of control (%)
State just the number; it will be interpreted in %.

Sample answers from the record:
structure_as_smiles=COc1cc(C(=O)NC2CCN(C)CC2)ccc1Nc1ncc2c(n1)N(C1CCCC1)CCC(=O)N2C(C)C tested_target="SIK1 (human)" observable="kinase still bound, per cent of control" recorded_value=100
structure_as_smiles=O=C(NC1CC1)c1cccc(-c2ccc3c(NC(=O)C4CC4)n[nH]c3c2)c1 tested_target="SIK1 (human)" observable="kinase still bound, per cent of control" recorded_value=84
structure_as_smiles=CCOc1cc2ncc(C#N)c(Nc3ccc(OCc4ccccn4)c(Cl)c3)c2cc1NC(=O)/C=C/CN(C)C tested_target="SIK1 (human)" observable="kinase still bound, per cent of control" recorded_value=31
structure_as_smiles=N#Cc1c(NC(=O)c2cccc3ccccc23)sc2c1CCCC2 tested_target="SIK1 (human)" observable="kinase still bound, per cent of control" recorded_value=92
structure_as_smiles=CCC(=O)N1CCN(c2ccc(-n3c(=O)ccc4cnc5ccc(-c6cnc7ccccc7c6)cc5c43)cc2C(F)(F)F)CC1 tested_target="SIK1 (human)" observable="kinase still bound, per cent of control" recorded_value=80
structure_as_smiles=Cn1c(=O)n(-c2ccc(C(C)(C)C#N)cc2)c2c3cc(-c4cnc5ccccc5c4)ccc3ncc21 tested_target="SIK1 (human)" observable="kinase still bound, per cent of control" recorded_value=100

Quick one: kinase still bound, per cent of control for `CCCS(=O)(=O)Nc1ccc(F)c(C(=O)c2c[nH]c3ncc(-c4ccc(Cl)cc4)cc23)c1F` ?
2.8

Quick one: kinase still bound, per cent of control for `COc1cc(N2CCN(C)CC2)ccc1Nc1nc(N)c(C(=O)c2c(Cl)cccc2Cl)s1` ?
86

Quick one: kinase still bound, per cent of control for `O=C(NOC[C@H](O)CO)c1ccc(F)c(F)c1Nc1ccc(I)cc1F` ?
100

meta.source: the kinase profiling compilation of Christmann-Franck et al. (2016)
